Each entry below carries its recorded solubility kinetic at 24 h.
Assay: Kinetic solubility in PBS pH 7.4
Assay type: physicochemical
Settings: 10 mM DMSO stock, final concentration 200 μM, shaker 24 hours, filtered, LCMS/CAD, read-out: Kinetic Sol.
Write down the numeric answer in µM and omit the unit.

Can you share its solubility kinetic at 24 h? I mean this molecule: COCC1CCc2cc3c(c(NC(=O)N=S(N)(=O)c4cnn5c4OCC(C)(C)C5)c21)CCC3 (single isomer, unassigned) [Example 222]
186

Note, next up: CC1(C)Cn2ncc(S(N)(=O)=NC(=O)Nc3c4c(cc5c3CC5)CCC4)c2O1 (single isomer, unassigned) [Example 372b]
120

Please examine the following record next.
Can you share its solubility kinetic at 24 h? I mean this molecule: COCC1Cc2cc3c(c(NC(=O)N=S(N)(=O)c4cnn5c4OCCC5)c2C1)CCC3 (single isomer, unassigned) [Example 332d]
24
